- Test system: HeLa
- experiment description: Confirmatory qHTS for gynecologic anti-cancer compounds from libraries of approved drugs and bioactive compounds; note: potency is the fitted concentration of half-maximal effect; nearly all actives have a fitted effect of over 55% in size
- measurement conditions: gynecologic cancer cell panel viability, ATPlite luminescence, 48 h; series mostly up to 57.6 µM
Inconclusive results are not listed. The source made the active and inactive calls. Calls come from the whole dose curve; as a rule, active = well fitted cell-killing curve with a large enough effect; inconclusive = small, poorly fitted or top-dose-only effect, or effect the other way; inactive = no such curve, though single readings can be large or run the other way.
test readout: Potency

molecule: C[C@H]1CCC/C=C/C2C[C@H](O)C[C@H]2[C@H](O)/C=C/C(=O)O1 (stereo not given in full)
Potency: 172 nM (active)

# Potency lookup, item C=C(C)[C@H]1Cc2c(ccc3c2O[C@@H]2COc4cc(OC)c(OC)cc4[C@@H]2C3=O)O1
243 nM (active)

# Potency lookup, item Cc1sc2c(c1C)C(c1ccc(Cl)cc1)=NC(CC(=O)OC(C)(C)C)c1nnc(C)n1-2 (stereo not given)
769 nM (active)

# Potency lookup, item C[C@]12CC[C@H]3[C@@H](CCC4=CC(=O)CC[C@@H]43)[C@@H]1CC[C@@H]2OC(=O)CCc1ccccc1
2730 nM (active)

# Potency lookup, item CCNC(=O)C[C@@H]1N=C(c2ccc(Cl)cc2)c2cc(OC)ccc2-n2c(C)nnc21
1530 nM (active)
